Molecular target: PARD3_3, Q8TEW0
Sequence (Q8TEW0 582-685): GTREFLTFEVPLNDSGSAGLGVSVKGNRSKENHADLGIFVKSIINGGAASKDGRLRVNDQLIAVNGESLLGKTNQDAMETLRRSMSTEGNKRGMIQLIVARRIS
Test: holdup assay
Parameters: key: below the threshold = too weak to quantify, mostly under pKd 3.1 to 4
Details: plain residues with an end cap or a label only (N-terminal biotin on a linker: ado-ado)
Measurement Name: pKd

Please review the entries below; each comes with its answer.
1. NHSSSPETTA [TRMT13, Q9NUP7] : below the threshold
2. NLSIEKETKL [ASNSD1, Q9NWL6] : below the threshold
3. DDEDRLVIEI [ZNF831, Q5JPB2] : 4.98
4. PAPSSGKDYV [CLDN1, O95832] : below the threshold
5. MLSKQSESAI [FLVCR1, Q9Y5Y0] : below the threshold
6. SKSNFGSEPL [KIF17, Q9P2E2] : below the threshold

pKd recorded for this binder, SARSRLSSNL [HCN2, Q9UL51] , is below the threshold

# pKd (binder: SNAGNTATKA [NOSTRIN, Q8IVI9] ) is below the threshold

Documented pKd of AKPSRISTVV [IQSEC2, Q5JU85] : below the threshold
